assay: COS7 lysate on small-molecule microarray, probe aHis, 635 nm (AID 1123); conditions: COS7 cell lysate, fluorescence, higher = more signal;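 also: z-score combines 667nm fluorescence intensity with signal-to-noise per printed compound spot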
quantity.name: composite z-score

Consider the following illustrative entries.
>>> test_value("O=C1OCCC/C=C\\[C@H]2OC34C=CCN(Cn5nnc6ccccc65)C(=O)[C@H]3N(CCCO)C(=O)[C@@H]4C12 (stereo partly drawn)")
1.82
>>> test_value("C=CCC(OC(C)=O)[C@@H]1[C@@H](N(Cc2cc3ccccc3o2)C(=O)c2cccc3ccccc23)c2cc(OCCCO)ccc2N1C(=O)Cc1ccc2ccccc2c1 (stereo partly drawn)")
0.256

Next:
The compound COC(=O)[C@@]1(Cc2ccc(F)cc2)[C@H]2c3cc(C(=O)N4CCCC4)n(Cc4ccc(Cl)c(C(F)(F)F)c4)c3C[C@H]2CN1C(=O)c1ccccc1 showed composite z-score equal to 2.89

---

Would you mind telling me the reported z-score of each entry?
assay: Pseudomonas biofilm growth suppression – PAO1 strain, BacTiter-Glo luminescence, LB-PBS, primary screen (AID 1144); details: P. aeruginosa PAO1 biofilm, 12 h, higher = more signal
Active and inactive are the calls of the source. No rule for the calls is given here.

>>> test_value("CC(C)N1C(=O)c2ccccc2[C@](C)(C(=O)NC2CC2)[C@@H]1c1ccc(CO)cc1")
"-0.723 (inactive)"
>>> test_value("O=C1C2C=CC(C(O)c3cccc4ccccc34)N(n3cnnc3)C2C(=O)N1Cc1ccccc1 (stereo not drawn)")
"0.878 (inactive)"

Hey, quick one: what's z-score for each of these?
1. C=C(COC)C(=O)CC[C@@H](OC(=O)c1ccccc1-c1ccccc1C(=O)O)c1ccc(CO)o1
2. CCCC[C@H]1OB(O)C[C@H]2C1=C(COc1ccccc1)C[C@H]1C(=O)N(Cc3ccccc3)C(=O)[C@H]12
3. COc1ccc([Si](C)(C)[C@H]2[C@H](CC(=O)N3CCC[C@H]3CO)O[C@@]3(C(=O)N(Cc4cccc(N5CCC5=O)c4)c4ccccc43)[C@@H]2C)cc1
4. O=C1OCCC=C[C@H]2OC34C=CCN(c5ccc6ccccc6c5)C(=O)[C@H]3N(CCCCCCO)C(=O)[C@@H]4C12 (stereo partly drawn)
5. COc1ccccc1CN1C(=O)c2ccccc2[C@](Cc2ccccc2I)(C(=O)NC2CC2)[C@@H]1c1ccc(CO)cc1

Response:
1. 0.164 (inactive)
2. -0.375 (inactive)
3. 0.596 (inactive)
4. -0.0556 (inactive)
5. -0.0735 (inactive)

For C=C(/C(=C/C[C@@H](OC(C)=O)c1ccc(CO)o1)c1cnc2ccccc2c1)C(C)C the molecule record lists z-score as -0.171 (inactive)

---

Exercise: for every item that follows, state its recorded z-score.
assay: changes in parasitized red cell lysis, either direction – P. falciparum Indochina, OD700, 3 h, PSAC antagonist project, primary screen (AID 1156); conditions: P. falciparum-infected erythrocytes, osmotic lysis, higher = more signal, called active from +8 up or from −8 down
Answers are plain numbers.

Some entries whose results are on file:
>>> test_value("COC(=O)[C@@]1(Cc2ccc(F)cc2)[C@H]2c3cc(C(=O)N(C)C)n(Cc4ccccn4)c3C[C@H]2CN1C(=O)c1ccccc1")
0.336
>>> test_value("C=CCC(OC(C)=O)[C@@H]1[C@@H](N(Cc2cc3ccccc3o2)C(=O)c2cccc3ccccc23)c2cc(OCCCO)ccc2N1C(=O)Cc1ccc2ccccc2c1 (some centres not stated)")
-0.336

For the 5 compounds below, give their z-score values.
1. CCCCC(=C=CC[C@H](O)c1ccccc1OCCO)C[C@H](O)c1cc(Cl)cc(Cl)c1O
2. CN1C(=O)C2C(C1=O)C1C=C(c3ccc(CO)cc3)C2C(C2CC2)N1Cc1cc2c(cc1Br)OCO2 (configuration not stated)
3. CN(C)CCCCCCNC(=O)[C@@H]1C[C@@H]2C(=O)NCC(=O)N2[C@@H]1c1cccc(OCCO)c1
4. CC(C)(C)OC(=O)CC[C@]1(C(=O)NCC(O)CO)N=C(c2ccc(OCCCO)cc2)O[C@H]1c1ccccc1CN=[N+]=[N-] (some centres not stated)
5. CC1CC/C=C\[C@H]2OC34C=CCN(CCN5CCOCC5)C(=O)[C@H]3N(CCCCCO)C(=O)[C@@H]4C2C(=O)O1 (some centres not stated)

Response:
1. -0.179
2. 1.2
3. 2.28
4. 0.471
5. 0.007

Attribution: PubChem BioAssay
